Provenance of the data: patent US20260265247A1

Quick reference for pIC50 among some compounds
Measurement target: FLT3-ITD (Homo sapiens, UniProt P36888)
Sequence (P36888 1-993): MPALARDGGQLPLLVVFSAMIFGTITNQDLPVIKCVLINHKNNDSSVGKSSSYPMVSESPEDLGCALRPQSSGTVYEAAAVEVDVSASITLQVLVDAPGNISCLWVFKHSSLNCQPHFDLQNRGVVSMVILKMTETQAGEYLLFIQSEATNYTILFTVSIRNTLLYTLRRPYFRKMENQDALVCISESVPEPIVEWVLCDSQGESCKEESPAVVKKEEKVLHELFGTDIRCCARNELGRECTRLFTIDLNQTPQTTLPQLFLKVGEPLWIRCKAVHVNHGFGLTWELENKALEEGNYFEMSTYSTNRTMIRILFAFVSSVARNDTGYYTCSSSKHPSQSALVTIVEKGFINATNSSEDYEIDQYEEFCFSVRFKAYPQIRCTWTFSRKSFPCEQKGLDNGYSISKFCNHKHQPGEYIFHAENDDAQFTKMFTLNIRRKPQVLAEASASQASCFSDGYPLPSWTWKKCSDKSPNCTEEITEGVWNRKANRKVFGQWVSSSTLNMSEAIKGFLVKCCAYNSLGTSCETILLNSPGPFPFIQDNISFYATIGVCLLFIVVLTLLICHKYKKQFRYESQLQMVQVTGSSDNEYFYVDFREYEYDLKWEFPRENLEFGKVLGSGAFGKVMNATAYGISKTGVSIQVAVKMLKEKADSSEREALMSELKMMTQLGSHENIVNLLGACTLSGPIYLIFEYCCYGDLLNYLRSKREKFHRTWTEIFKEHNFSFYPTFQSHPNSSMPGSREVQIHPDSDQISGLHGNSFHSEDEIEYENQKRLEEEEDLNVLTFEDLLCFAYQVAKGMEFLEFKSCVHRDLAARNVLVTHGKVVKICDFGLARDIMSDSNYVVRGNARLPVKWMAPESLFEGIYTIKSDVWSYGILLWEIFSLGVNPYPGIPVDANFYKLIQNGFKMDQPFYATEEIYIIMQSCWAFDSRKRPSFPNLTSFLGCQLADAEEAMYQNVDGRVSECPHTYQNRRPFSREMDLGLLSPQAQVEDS
Method notes: FLT3-ITD Enzymatic Assay
Condition: enzyme inhibition; peptide 2 3 μM, ATP 97.2 μM
pIC50: −log10 of the molar value.
Metric: pIC50

# Compound, Qualifying sign, Reading
records = [
    ("O=C1NCCN1c1cccc(-c2cnc3[nH]cc(C4CC4)c3c2Cl)c1 [Compound 4]", "=", 7.84),
    ("CCc1c[nH]c2ncc(-c3cccc(N4CCNC4=O)c3)c(Cl)c12 [Compound 3]", "=", 7.65),
    ("O=C1NCCCN1c1cccc(-c2cnc3[nH]cc(C4CC4)c3c2Cl)n1 [Compound 8]", "=", 8.22),
    ("CCN(C)C(=O)c1c[nH]c2ncc(-c3cccc(N4CCCNC4=O)c3)c(Cl)c12 [Compound 12]", "<", 6.00),
    ("CCc1c[nH]c2ncc(-c3cccc(N4CCCNC4=O)c3)c(Cl)c12 [Compound 9]", "=", 9.10),
    ("O=C1NC2(CCNC2)C(=O)N1c1cccc(-c2cnc3[nH]cc(C4CC4)c3c2Cl)c1 (centres unmarked) [Compound 10]", "=", 7.94),
    ("O=C1NCCN1c1cccc(-c2cnc3[nH]cc(C4CC4)c3c2Cl)n1 [Compound 6]", "=", 8.21),
    ("CCc1c[nH]c2ncc(-c3cccc(-n4cn[nH]c4=O)c3)c(Cl)c12 [Compound 1]", "=", 7.42),
    ("CS(=O)(=O)c1ccc(-c2cnc3[nH]cc(C4CC4)c3c2Cl)cc1N1CCCNC1=O [Compound 14]", "=", 7.43),
    ("O=C1NC2(CCNC2)CN1c1cccc(-c2cnc3[nH]cc(C4CC4)c3c2Cl)c1 (centres unmarked) [Compound 11]", "=", 7.65),
    ("O=c1[nH]ncn1-c1cccc(-c2cnc3[nH]cc(C4CC4)c3c2Cl)c1 [Compound 2]", "=", 7.63),
    ("O=C1NCCCN1c1nc(-c2cnc3[nH]cc(C4CC4)c3c2Cl)cs1 [Compound 5]", "=", 8.66),
    ("N#Cc1cc(-c2cnc3[nH]cc(C4CC4)c3c2Cl)cc(N2CCCNC2=O)c1 [Compound 13]", "=", 7.03),
    ("Cc1sc(N2CCCNC2=O)nc1-c1cnc2[nH]cc(C3CC3)c2c1Cl [Compound 7]", "=", 8.38),
]

---

Reported pIC50 values, UniProt:O14965.
Sequence (O14965 whole entry): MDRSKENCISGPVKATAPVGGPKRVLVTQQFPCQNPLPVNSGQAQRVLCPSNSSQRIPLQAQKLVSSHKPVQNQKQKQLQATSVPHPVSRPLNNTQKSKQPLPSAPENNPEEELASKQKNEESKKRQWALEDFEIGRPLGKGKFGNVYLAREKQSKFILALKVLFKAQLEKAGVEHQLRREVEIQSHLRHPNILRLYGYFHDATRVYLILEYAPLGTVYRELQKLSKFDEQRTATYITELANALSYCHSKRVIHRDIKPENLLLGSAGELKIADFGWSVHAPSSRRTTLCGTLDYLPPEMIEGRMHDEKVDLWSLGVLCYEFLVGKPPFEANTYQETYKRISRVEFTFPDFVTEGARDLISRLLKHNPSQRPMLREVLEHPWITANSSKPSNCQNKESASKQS
pIC50: −log10 of the molar value.

# Cpd smiles, Measurement target, pIC50
measured = [
    ("Cc1sc(N2CCCNC2=O)nc1-c1cnc2[nH]cc(C3CC3)c2c1Cl", "UniProt:O14965", 7.03),
    ("O=C1NCCCN1c1cccc(-c2cnc3[nH]cc(C4CC4)c3c2Cl)n1", "UniProt:O14965", 8.11),
    ("CCc1c[nH]c2ncc(-c3cccc(-n4cn[nH]c4=O)c3)c(Cl)c12", "UniProt:O14965", 7.45),
    ("O=C1NCCCN1c1nc(-c2cnc3[nH]cc(C4CC4)c3c2Cl)cs1", "UniProt:O14965", 8.51),
    ("CCc1c[nH]c2ncc(-c3cccc(N4CCCNC4=O)c3)c(Cl)c12", "UniProt:O14965", 6.76),
]
